Assay: melting temperature; fluorescence melt of hairpins on a sequencing array, two-state fit, raised by 9.35 °C to match UV melts
Details: sodium 0.088 M
Assign a class from recorded Tm; defined classes: bin 0: < 40 °C; bin 1: ≥ 40 °C and < 50 °C; bin 2: ≥ 50 °C

sequence.data	class.assignment
GCGCCAACGAAAGTTCGC (((..(((....))))))	bin 1
GGGTCTGGAAACGGATCC ((.((.(....).)).))	bin 1
GTTGTTGGAAACAGCAAC ((((.((....)).))))	bin 1
GCGATTGTTCGC ((((....))))	bin 2
GTCACAGGAAACTACGAC (((..((....))..)))	bin 0
GAGGGTGAAAACCCTC ((((((....))))))	bin 2
GCACTGCGAAAGCTTTGC (((..((....))..)))	bin 1
GTTTAACGAAAGTTAAC (((.(((....))))))	bin 0
GCCAGGCGAAAGCGTTGC ((.(.((....)).).))	bin 0
GTGGAGGGAAACTTCCGC (.(((.(....).))).)	bin 0
GCGGACTTCCGC ((((....))))	bin 2
